- Tested on: Akt phosphorylated at Ser473 in PC-3 cells
- assayProtocol: Cellular assay: phosphorylation of Akt at Ser473 in PC-3 cells (MSD ELISA)
- Assay type: cell-based
- recordedConditions: PC-3 cells, 60 min compound incubation, MSD ELISA; read-out: IC50 pAkt_S473
pIC50: −log10 of the molar value.
readoutName: pIC50

Examples with their reported pIC50 follow.
compound	readoutName	observedResult
CC(Nc1cc(F)cc(F)c1)c1cc(CN2CCS(=O)(=O)CC2)cc2ncc(N3CCOCC3)nc12 (single isomer, unassigned) [Compound 156]	pIC50	7.38
CC(Nc1ccc(F)c(F)c1)c1cc(C(=O)N2CCC[C@H](O)C2)cc2ncc(N3CCOCC3)nc12 (single isomer, unassigned) [Compound 302b]	pIC50	7.27
CC(Nc1cc(F)c(F)c(F)c1)c1cc(C(=O)NCCN(C)C)cc2ncc(N3CCOCC3)nc12 (single isomer, unassigned) [Compound 309b]	pIC50	6.44

A = CC(C)NCCNC(=O)c1cc(C(C)Oc2ccc(F)c(F)c2)c2nc(N3CCOCC3)cnc2c1 (racemic) [Compound 286]
B = CC(Nc1cc(F)cc(F)c1)c1cc(CN2CC3(C2)CS(=O)(=O)C3)cc2ncc(N3CCOCC3)nc12 (single isomer, unassigned) [Compound 160]
C = CN[C@@H]1CCN(C(=O)c2cc(C(C)Nc3ccc(F)c(F)c3)c3nc(N4CCOCC4)cnc3c2)C1 (single isomer, unassigned) [Compound 371a]
D = CNCCNC(=O)c1cc(C(C)Nc2cccc(F)c2)c2nc(N3CCOCC3)cnc2c1 (single isomer, unassigned) [Compound 138]
## Input Order each entry by recorded pIC50, climbing from the minimum. Write the labels out in the order the request specifies.
## Output A, B, C, D

====

pKd: −log10 of the molar value.
For reference, pKd measured on kinase enzymes (Homo sapiens, UniProt P42336):
readoutName: pKd

Examples with their reported pKd follow.
compound	systemName	pKd
CC(Oc1ccc(F)c(F)c1)c1cc(C(=O)N2CCN3CCC[C@H]3C2)cc2ncc(N3CCOCC3)nc12 (single isomer, unassigned) [Compound 369a]	kinase enzymes (Homo sapiens, UniProt P42336)	5.14
CN[C@H]1CCN(C(=O)c2cc(C(C)Nc3ccc(F)c(F)c3)c3nc(N4CCOCC4)cnc3c2)C1 (single isomer, unassigned) [Compound 365a]	kinase enzymes (Homo sapiens, UniProt P42336)	5.28
CN[C@H]1CCN(C(=O)c2cc(C(C)Nc3ccc(F)c(F)c3)c3nc(N4CCOCC4)cnc3c2)C1 (mixture of isomers) [Compound 365]	kinase enzymes (Homo sapiens, UniProt P42336)	5.68
CC(Nc1cccc(F)c1)c1cc(C(=O)NCC(=O)O)cc2ncc(N3CCOCC3)nc12 (single isomer, unassigned) [Compound 393b]	kinase enzymes (Homo sapiens, UniProt P42336)	4.96
CC(Nc1cc(F)cc(F)c1)c1cc(C(=O)O)cc2ncc(N3CCOCC3)nc12 (single isomer, unassigned) [Compound 83c]	kinase enzymes (Homo sapiens, UniProt P42336)	5.51

I = CC(Nc1cccc(F)c1)c1cc(C(=O)N2CC[C@@H](O)C2)cc2ncc(N3CCOCC3)nc12 (single isomer, unassigned) [Compound 321b]
II = CC(c1cc(C(=O)O)cc2ncc(N3CCOCC3)nc12)N(C)c1cccc(F)c1 (stereo not drawn)
## Input Choose between I and II : whose measured pKd value is numerically larger? Respond using the label that marks the chosen record.
## Output II

a = Fc1cc(F)cc(N2CCCC2c2cncc3ncc(N4CCOCC4)nc23)c1 (single isomer, unassigned) [Compound 24]
b = CN(C)C(=O)c1cc(CNc2cc(F)cc(F)c2)c2nc(N3CCOCC3)cnc2c1
c = CC(Nc1cc(F)cc(F)c1)c1cc(C(=O)NC[C@H](C)O)cc2ncc(N3CCOCC3)nc12 (single isomer, unassigned) [Compound 246a]
d = Cc1c(F)cccc1CN(C)c1cc(C(=O)N(C)C)cc2ncc(N3CCOCC3)nc12
## Input Order each entry by recorded pKd, climbing from the minimum. Write the labels out in the order the request specifies.
## Output d, b, c, a
(d: 5.09, b: 5.53, c: 6.09, a: 6.52)

A = CC(Nc1ccc(F)c(F)c1)c1cc(C(=O)N[C@H]2CCNC2)cc2ncc(N3CCOCC3)nc12 (single isomer, unassigned) [Compound 374a]
B = CC1CN(c2cnc3cc(C(=O)N(C)C)cc(C4CCCN4c4cc(F)cc(F)c4)c3n2)CCO1 (stereo not drawn)
## Input Lower pKd: A or B ? Respond using the label that marks the chosen record.
## Output A
(A: 5.61, B: 6.65)

I = CC(Nc1ccc(F)c(F)c1)c1cc(C(=O)N(C)C2CCNC2)cc2ncc(N3CCOCC3)nc12 (stereo not drawn) [Compound 322b]
II = CC(C)NCCNC(=O)c1cc(C(C)Nc2ccc(F)c(F)c2)c2nc(N3CCOCC3)cnc2c1 (single isomer, unassigned) [Compound 364b]
III = CN(C)C(=O)c1cc(C2CCCN2c2ccccc2)c2nc(N3CCOCC3)cnc2c1 (stereo not drawn)
## Input // ranking: key=pKd, reverse=True Write the labels out in the order the request specifies.
## Output III, I, II

A = CC(Oc1ccc(Cl)c(F)c1)c1cc(C(=O)N(C)CCN(C)C)cc2ncc(N3CCOCC3)nc12 (single isomer, unassigned) [Compound 313a]
B = CC(Oc1cccc(F)c1)c1cc(C(=O)O)cc2ncc(N3CCOCC3)nc12 (single isomer, unassigned) [Compound 257c]
## Input Lower pKd: A or B ? Respond using the label that marks the chosen record.
## Output A

P = Cc1c(CNc2cc(C(=O)N(C)C)cc3ncc(N4CCOCC4)nc23)cccc1C(F)(F)F
Q = CC(Nc1cc(F)cc(F)c1)c1cncc2ncc(N3CCOCC3)nc12 (stereo not drawn)
## Input Choose between P and Q : whose measured pKd value is numerically larger? Respond using the label that marks the chosen record.
## Output P
(P: 5.55, Q: 5.27)
